Property: IC50; scope: individual compounds
study system: Human factor XIIa (hfXIIa) (Homo sapiens, UniProt P00748)
Sequence (P00748 373-615 limits assumed): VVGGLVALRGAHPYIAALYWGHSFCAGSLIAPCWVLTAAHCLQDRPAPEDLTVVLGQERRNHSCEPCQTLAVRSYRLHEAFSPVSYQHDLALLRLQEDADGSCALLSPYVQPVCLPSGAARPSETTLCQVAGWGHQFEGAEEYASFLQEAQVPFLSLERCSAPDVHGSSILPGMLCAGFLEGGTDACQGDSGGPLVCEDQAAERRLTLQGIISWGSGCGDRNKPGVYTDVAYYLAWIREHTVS
Numbered stars: 1 amine (or outer) side, 2 acyl side, 3 side chain; on linkers, the order of the positions; unused ones are H or OH. Bridge positions count the residues as written; N and C are the ends. Peptide text beside a SMILES is read from it. TBMB = c1c(C[*:1])cc(C[*:3])cc1C[*:2]

| compound | study system | IC50 |
| --- | --- | --- |
| CSCC[C@@H]1NC(=O)[C@H]([C@@H](C)O)NC(=O)[C@@H]2CSCc3cc(cc(c3)CSC[C@@H](C(=O)N[C@@H](C)C(N)=O)NC(=O)[C@H](Cc3c[nH]c4ccccc34)NC(=O)[C@H](CC(N)=O)NC(=O)[C@H](CCC(N)=O)NC1=O)CSC[C@H](NC(=O)[C@H](C)N)C(=O)N[C@@H]([C@@H](C)O)C(=O)N[C@@H](Cc1c[nH]c3ccccc13)C(=O)N1CCC[C@H]1C(=O)N[C@@H](C)C(=O)N[C@@H](CCCNC(=N)N)C(=O)N2 [06-A2*] (H-ACTWPARCTMQNWCA-NH2; linker 2-8-14 via TBMB) | Human factor XIIa (hfXIIa) (Homo sapiens, UniProt P00748) | > 10 µM |
| CC(C)C[C@@H]1NC(=O)[C@@H]2CSCc3cc(cc(c3)CSC[C@@H](C(=O)N[C@@H](C)C(N)=O)NC(=O)[C@H](CC(C)C)NC(=O)[C@H](CC(=O)O)NC(=O)[C@H]([C@@H](C)O)NC(=O)[C@H](Cc3c[nH]cn3)NC1=O)CSC[C@H](NC(=O)[C@H](C)N)C(=O)N[C@@H](CC(N)=O)C(=O)N[C@@H](Cc1c[nH]c3ccccc13)C(=O)N1CCC[C@H]1C(=O)N[C@@H](Cc1ccc(O)cc1)C(=O)N[C@@H](CCCNC(=N)N)C(=O)N2 [Peptide 06-157] (H-ACNWPYRCLHTDLCA-NH2; linker 2-8-14 via TBMB) | Human factor XIIa (hfXIIa) (Homo sapiens, UniProt P00748) | > 10 µM |

###

study system: human plasma kallikrein (hPK) (Homo sapiens, UniProt P03952)
Sequence (P03952 20-638): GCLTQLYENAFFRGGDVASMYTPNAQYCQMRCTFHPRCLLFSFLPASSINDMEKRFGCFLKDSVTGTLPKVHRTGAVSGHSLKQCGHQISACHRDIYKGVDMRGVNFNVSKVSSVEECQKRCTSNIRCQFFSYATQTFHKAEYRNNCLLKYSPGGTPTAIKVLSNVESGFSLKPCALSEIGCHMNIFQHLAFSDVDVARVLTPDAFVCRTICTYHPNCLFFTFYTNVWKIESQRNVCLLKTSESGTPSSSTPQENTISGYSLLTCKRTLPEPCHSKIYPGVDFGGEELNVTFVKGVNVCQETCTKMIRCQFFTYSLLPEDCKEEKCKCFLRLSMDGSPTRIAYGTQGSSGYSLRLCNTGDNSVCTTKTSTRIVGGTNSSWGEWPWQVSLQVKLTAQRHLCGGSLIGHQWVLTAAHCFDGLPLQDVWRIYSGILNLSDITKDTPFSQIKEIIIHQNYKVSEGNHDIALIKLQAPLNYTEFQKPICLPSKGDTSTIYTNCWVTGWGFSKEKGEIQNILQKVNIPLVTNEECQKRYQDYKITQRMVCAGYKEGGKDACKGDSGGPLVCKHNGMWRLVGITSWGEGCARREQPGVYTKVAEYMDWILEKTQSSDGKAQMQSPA
test details: Enzyme inhibition assay, human plasma kallikrein
pKi: −log10 of the molar value. Numbered stars: 1 amine (or outer) side, 2 acyl side, 3 side chain; on linkers, the order of the positions; unused ones are H or OH. Bridge positions count the residues as written; N and C are the ends. Peptide text beside a SMILES is read from it. TBMB = c1c(C[*:1])cc(C[*:3])cc1C[*:2]

| compound | pKi |
| --- | --- |
| CC(=O)N[C@H]1CSCc2cc3cc(c2)CSC[C@H](NC(=O)[C@H](Cc2ccc(NC(=N)N)cc2)NC(=O)[C@H](C)NC(=O)[C@@H]2CCCN2C(=O)[C@H](Cc2c[nH]c4ccccc24)NC(=O)[C@H](CO)NC1=O)C(=O)N[C@@H](CC(C)C)C(=O)N[C@@H](Cc1c[nH]cn1)C(=O)N[C@@H](CCC(N)=O)C(=O)N[C@@H](CC(=O)O)C(=O)N[C@@H](CC(C)C)C(=O)N[C@H](C(N)=O)CSC3 | 9.52 |
| CC(C)C[C@@H]1NC(=O)[C@H](CC(N)=O)NC(=O)[C@H](CCC(N)=O)NC(=O)[C@H](Cc2c[nH]cn2)NC(=O)[C@H](CC(C)C)NC(=O)[C@@H]2CSCc3cc(cc(c3)CSC[C@@H](C(=O)N[C@@H](C)C(N)=O)NC1=O)CSC[C@H](NC(=O)[C@H](C)N)C(=O)N[C@@H]([C@@H](C)O)C(=O)N[C@@H](Cc1ccc(O)cc1)C(=O)N1CCC[C@H]1C(=O)N[C@@H](Cc1ccc(O)cc1)C(=O)N[C@@H](CCCCN)C(=O)N2 [Peptide 2A10] (H-ACTYPYKCLHQNLCA-NH2; linker 2-8-14 via TBMB) | 8.30 |
| C[C@H](N)C(=O)N[C@H]1CSCc2cc3cc(c2)CSC[C@H](NC(=O)[C@H](CCCNC(=N)N)NC(=O)[C@H](C)NC(=O)[C@@H]2CCCN2C(=O)[C@H](Cc2c[nH]c4ccccc24)NC(=O)[C@H](CCCNC(=N)N)NC1=O)C(=O)N[C@@H]([C@@H](C)O)C(=O)N[C@@H](Cc1c[nH]cn1)C(=O)N[C@@H](CCC(N)=O)C(=O)N[C@@H](CC(N)=O)C(=O)N[C@@H](Cc1ccc(O)cc1)C(=O)N[C@H](C(=O)N[C@@H](C)C(N)=O)CSC3 [Peptide 06-54] (H-ACRWPARCTHQNYCA-NH2; linker 2-8-14 via TBMB) | 9.31 |
